- Tgt: Capsid scaffolding protein (Human cytomegalovirus (strain AD169) (HHV-5) (Human herpesvirus 5), UniProt P16753)
- Sequence (P16753 1-256 limits assumed): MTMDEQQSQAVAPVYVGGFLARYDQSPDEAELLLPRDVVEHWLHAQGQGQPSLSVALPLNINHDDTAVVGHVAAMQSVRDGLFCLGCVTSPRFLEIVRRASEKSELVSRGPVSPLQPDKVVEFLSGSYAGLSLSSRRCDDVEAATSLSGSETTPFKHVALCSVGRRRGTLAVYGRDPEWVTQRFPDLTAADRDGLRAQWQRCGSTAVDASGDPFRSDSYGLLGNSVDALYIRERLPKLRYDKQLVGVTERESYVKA
- Run description: Inhibitory activity against cytomegalovirus protease (CMV)
Recorded IC50, one value per entry.
Reply with just the number (in nM).

Sample answers from the record:
CCOc1ccc(C(=O)/C=C/C(=O)N[C@@H](C)c2nc3scc(C)c3c(=O)o2)cc1: 260
Cc1csc2nc([C@H](C)NC(=O)/C=C/C(=O)c3cccs3)oc(=O)c12: 29

Report IC50 for CC(=O)/C=C/C(=O)N[C@@H](C)c1nc2scc(C)c2c(=O)o1 370
